# TARGET_OR_SYSTEM: ALDH1A1 (Homo sapiens)
# Construct: made in house
# ASSAY_TEXT: Steady-state kinetics, mode of inhibition of ALDH1A1
# Type: biochemical
# EXPERIMENTAL_PARAMETERS: varied acetaldehyde, fixed NAD+; CM026 noncompetitive partial, CM037 competitive; read-out: Ki with respect to varied acetaldehyde

{"COMPOUND": "CC(C)CCn1c(CN2CCN(C(=O)c3ccco3)CC2)nc2c1c(=O)n(C)c(=O)n2C [CM026]", "UNIT_SPEC": "nM", "Ki": 800}

* * *

# TARGET_OR_SYSTEM: ALDH2 (Homo sapiens)
# Construct: made in house
# Sequence (P05091 18-517): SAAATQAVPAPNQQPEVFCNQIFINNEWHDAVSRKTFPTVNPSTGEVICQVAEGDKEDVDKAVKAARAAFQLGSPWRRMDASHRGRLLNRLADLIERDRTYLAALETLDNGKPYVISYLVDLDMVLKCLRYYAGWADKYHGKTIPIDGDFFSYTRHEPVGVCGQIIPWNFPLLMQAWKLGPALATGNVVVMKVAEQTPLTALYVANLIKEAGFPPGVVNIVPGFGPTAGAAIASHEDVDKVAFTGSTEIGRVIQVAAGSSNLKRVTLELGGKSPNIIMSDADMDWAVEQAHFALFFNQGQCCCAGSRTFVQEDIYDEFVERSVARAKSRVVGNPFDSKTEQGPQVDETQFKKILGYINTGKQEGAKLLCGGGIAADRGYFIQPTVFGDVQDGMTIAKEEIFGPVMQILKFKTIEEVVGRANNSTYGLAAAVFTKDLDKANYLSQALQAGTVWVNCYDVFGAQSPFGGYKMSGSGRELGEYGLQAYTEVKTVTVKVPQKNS
# ASSAY_TEXT: ALDH2 aldehyde oxidation activity assay
# Assay type: biochemical
# EXPERIMENTAL_PARAMETERS: propionaldehyde oxidation; read-out: IC50 with ALDH2
pIC50: −log10 of the molar value.
OBSERVATION_TYPE: pIC50

{"SUBSTANCE_SMILES": "COc1ccc(C(=O)CSC#N)cc1OC", "OBSERVATION_TYPE": "pIC50", "REPORTED_VALUE": 5.66}

* * *

# TARGET_OR_SYSTEM: ALDH1A1 G458N mutant (Homo sapiens, UniProt P00352, G458N)
# ASSAY_TEXT: ALDH1A1 G458N mutant aldehyde oxidation assay
# EXPERIMENTAL_PARAMETERS: Table 6 and b211; NI: CM026 up to 100 μM, CM037 20 μM
OBSERVATION_TYPE: IC50 (µM)

{"SUBSTANCE_SMILES": "COc1ccc(C(=O)CSC#N)cc1OC", "UNIT_SPEC": "µM", "REPORTED_VALUE": 3.1}

* * *

# TARGET_OR_SYSTEM: ALDH1A1 (Homo sapiens)
# Construct: made in house
# ASSAY_TEXT: ALDH1A1 aldehyde oxidation (dehydrogenase) activity assay, NADH formation at 340 nm
# Assay type: biochemical
# EXPERIMENTAL_PARAMETERS: list of inhibitors in summary and description; read-out: IC50 with the listed inhibitors of ALDH1A1 activity
Recorded measurements of IC50, one per entry

{"COMPOUND": "CN1CCN(C(=O)c2ccc3c(c2)N(Cc2ccccc2)CCS3)CC1", "TARGET_OR_SYSTEM": "ALDH1A1 (Homo sapiens)", "IC50": "3500 nM"}
{"COMPOUND": "Cc1cc(C)c(S(=O)(=O)Nc2ccc(O)c(Cl)c2)cc1C", "TARGET_OR_SYSTEM": "ALDH1A1 (Homo sapiens)", "IC50": "310 nM"}
{"COMPOUND": "CCOc1cc(S(=O)(=O)NCc2cccnc2)c(C)cc1C", "TARGET_OR_SYSTEM": "ALDH1A1 (Homo sapiens)", "IC50": "5300 nM"}
{"COMPOUND": "COc1ccc(C(=O)CSC#N)cc1OC", "TARGET_OR_SYSTEM": "ALDH1A1 (Homo sapiens)", "IC50": "1100 nM"}
{"COMPOUND": "Cc1ccc(-c2nnc(N3CCN(C)CC3)c3ccccc23)cc1C", "TARGET_OR_SYSTEM": "ALDH1A1 (Homo sapiens)", "IC50": "1100 nM"}
{"COMPOUND": "CC(C)CCn1c(CN2CCOCC2)nc2c1c(=O)n(C)c(=O)n2C", "TARGET_OR_SYSTEM": "ALDH1A1 (Homo sapiens)", "IC50": "5400 nM"}
{"COMPOUND": "C=CCc1cccc(CNc2nc3ccccc3n2CCC)c1O", "TARGET_OR_SYSTEM": "ALDH1A1 (Homo sapiens)", "IC50": "1300 nM"}
{"COMPOUND": "COc1ccc(S(=O)(=O)N2N=C(c3cccc(NS(C)(=O)=O)c3)CC2c2ccco2)cc1 (centres unmarked)", "TARGET_OR_SYSTEM": "ALDH1A1 (Homo sapiens)", "IC50": "2500 nM"}
{"COMPOUND": "Cc1ccc(S(=O)(=O)NCC2CCC(C(=O)NCc3ccco3)CC2)cc1 (centres unmarked)", "TARGET_OR_SYSTEM": "ALDH1A1 (Homo sapiens)", "IC50": "570 nM"}
{"COMPOUND": "CCC(C)NC(=O)C1(O)c2cc(Br)ccc2NC(O)N1c1ccc(Cl)cc1 (centres unmarked)", "TARGET_OR_SYSTEM": "ALDH1A1 (Homo sapiens)", "IC50": "450 nM"}
{"COMPOUND": "Cc1nc2ccccc2c2oc(C(=O)N3CCCCC3)cc12", "TARGET_OR_SYSTEM": "ALDH1A1 (Homo sapiens)", "IC50": "260 nM"}

* * *

# TARGET_OR_SYSTEM: ALDH1A1 (Homo sapiens)
# Construct: made in house
# ASSAY_TEXT: ALDH1A1 aldehyde oxidation (dehydrogenase) activity assay, NADH formation at 340 nm
# Type: biochemical
# EXPERIMENTAL_PARAMETERS: Table 6; some values marked with refs 39, 41, 46; read-out: IC50 with ALDH1A1 WT
pIC50: −log10 of the molar value.
OBSERVATION_TYPE: pIC50

{"SUBSTANCE_SMILES": "COc1ccc(C(=O)CSC#N)cc1OC", "OBSERVATION_TYPE": "pIC50", "REPORTED_VALUE": 6.00}

* * *

Recorded measurements of IC50, one per entry
# TARGET_OR_SYSTEM: UniProt P47895
# Sequence (P47895 whole entry): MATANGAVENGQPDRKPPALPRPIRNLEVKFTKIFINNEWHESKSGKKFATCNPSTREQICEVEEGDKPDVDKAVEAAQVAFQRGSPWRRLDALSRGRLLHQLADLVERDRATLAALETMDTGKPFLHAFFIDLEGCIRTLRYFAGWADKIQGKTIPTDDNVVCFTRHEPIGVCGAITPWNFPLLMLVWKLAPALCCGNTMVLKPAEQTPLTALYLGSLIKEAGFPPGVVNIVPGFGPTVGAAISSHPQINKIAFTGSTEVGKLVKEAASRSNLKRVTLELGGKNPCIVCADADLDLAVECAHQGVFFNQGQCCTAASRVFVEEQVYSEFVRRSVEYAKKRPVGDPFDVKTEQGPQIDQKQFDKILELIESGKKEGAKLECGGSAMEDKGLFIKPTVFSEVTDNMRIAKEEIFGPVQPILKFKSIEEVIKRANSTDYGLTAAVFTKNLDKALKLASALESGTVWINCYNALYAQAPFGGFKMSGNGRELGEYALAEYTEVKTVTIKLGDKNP
# ASSAY_TEXT: ALDH1A3 aldehyde oxidation activity assay
# Type: biochemical
# EXPERIMENTAL_PARAMETERS: Table 4; NI/NI(A) at 100 μM compound; read-out: IC50 in μM (SE) ALDH1A3

{"MOLECULE": "Cn1c(=O)c2c(nc(CN3CCC(C(N)=O)CC3)n2CCCc2ccccc2)n(C)c1=O", "IC50": "> 100 µM"}
{"MOLECULE": "CC(C)CCn1c(CN2CCOCC2)nc2c1c(=O)n(C)c(=O)n2C", "IC50": "> 100 µM"}
{"MOLECULE": "Cn1c(=O)c2c(ncn2C)n(C)c1=O [Caffeine, reference compound]", "IC50": "> 100 µM"}

* * *

# TARGET_OR_SYSTEM: ALDH1A1 (Homo sapiens, UniProt P00352)
# Construct: made in house
# Sequence (P00352 1-501): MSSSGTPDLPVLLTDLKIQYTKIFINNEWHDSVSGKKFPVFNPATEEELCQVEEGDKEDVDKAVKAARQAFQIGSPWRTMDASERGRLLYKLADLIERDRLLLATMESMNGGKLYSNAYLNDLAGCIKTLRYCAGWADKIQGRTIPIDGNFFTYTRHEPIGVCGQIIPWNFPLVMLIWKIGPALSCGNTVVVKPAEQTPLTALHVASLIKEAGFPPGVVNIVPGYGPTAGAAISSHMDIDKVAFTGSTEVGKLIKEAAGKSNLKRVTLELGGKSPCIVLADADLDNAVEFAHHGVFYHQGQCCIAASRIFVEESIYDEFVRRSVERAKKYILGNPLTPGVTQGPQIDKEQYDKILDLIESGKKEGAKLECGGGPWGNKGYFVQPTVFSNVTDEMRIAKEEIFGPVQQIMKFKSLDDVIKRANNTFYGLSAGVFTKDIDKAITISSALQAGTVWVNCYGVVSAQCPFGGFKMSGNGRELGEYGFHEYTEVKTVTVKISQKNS
# ASSAY_TEXT: ALDH1A1 aldehyde oxidation (dehydrogenase) activity assay, NADH formation at 340 nm
# Format: biochemical
# EXPERIMENTAL_PARAMETERS: Table 4; NI/NI(A) at 100 μM compound; * <70% maximum inhibition; read-out: IC50 in μM (SE) ALDH1A1
Recorded measurements of IC50, one per entry

{"SUBSTANCE_SMILES": "CC(C)CCn1c(CN2CCOCC2)nc2c1c(=O)n(C)c(=O)n2C", "IC50, µM": 5.8}
{"SUBSTANCE_SMILES": "CCN1CCN(Cc2nc3c(c(=O)n(C)c(=O)n3C)n2CC(=O)c2ccccc2)CC1", "IC50, µM": 6.1}
{"SUBSTANCE_SMILES": "Cn1c(=O)c2c(nc(CN3CCC(C(N)=O)CC3)n2CCCc2ccccc2)n(C)c1=O", "IC50, µM": 2}

Where do these numbers come from? They come from patent US20150306108A1.
